# MEASUREMENT_NOTES: Confirmation screen for delayed death inhibitors of the malarial parasite plastid, 96 hour incubation; further: potency means the concentration at half of the fitted maximal effect; nearly all actives have a fitted effect of over 60% in size
# MEASUREMENT_CONDITIONS: P. falciparum luciferase growth in erythrocytes; series mostly up to 28.7 µM
Hit rate of the full screen: of about 2,300 compounds, about 1,400 (61%) were called active. Another 29% or so got no clear call; they are omitted. The set was probably picked from earlier hits. This is one part of the list.
Assignment: determine reported Potency for the given compounds.

Potency for `COCCCNC(=O)c1cc2cc3cc(OC)ccc3nc2o1` ?
2.24 µM (active)

Then this compound: `CCn1c(=O)n(CC)c2cc(N3CCCC3)c(NC(=O)c3ccc(C)cc3)cc21`
7.08 µM (active)

Then this compound: `Cc1ccc(-n2c(SCC(=O)Nc3ncc(Cl)cc3Cl)nc3ccccc32)cc1`
11.2 µM (active)
